The measurements presented in this section are drawn from ChEMBL document CHEMBL3232876.

# test details: Growth inhibition of human NCI-ADR-RES cells after 48 hrs by sulforhodamine B assay
# Type: functional
GI50 values by entry

{"compound": "CC1=CC[C@H](C(C)(C)NC(=S)N/N=C/c2ccccc2)CC1", "GI50": "> 100 µM"}
{"compound": "COc1ccc(/C(C)=N/NC(=S)NC(C)(C)[C@H]2CC=C(C)CC2)cc1", "GI50": "> 100 µM"}
{"compound": "CC1=CC[C@H](C(C)(C)NC(=S)N/N=C/c2cccc([N+](=O)[O-])c2)CC1", "GI50": "> 100 µM"}
{"compound": "CC1=CC[C@H](C(C)(C)NC(=S)N/N=C(\\C)c2ccccc2)CC1", "GI50": "> 100 µM"}
{"compound": "CC1=CC[C@H](C(C)(C)N=C=S)CC1", "GI50": "> 100 µM"}
{"compound": "CC1=CC[C@H](C(C)(C)NC(=S)N/N=C/c2ccccc2[N+](=O)[O-])CC1", "GI50": "19.2 µM"}
{"compound": "CC1=CC[C@H](C(C)(C)NC(=S)N/N=C/c2ccc(N(C)C)cc2)CC1", "GI50": "> 100 µM"}
{"compound": "CC1=CC[C@H](C(C)(C)NC(=S)N/N=C/c2ccc(O)cc2)CC1", "GI50": "82.1 µM"}
{"compound": "CC1=CC[C@H](C(C)(C)NC(=S)N/N=C/c2ccccc2O)CC1", "GI50": "3.7 µM"}
{"compound": "CC1=CC[C@H](C(C)(C)NC(=S)N/N=C/c2cccs2)CC1", "GI50": "13.6 µM"}
{"compound": "COc1ccc(/C=N/NC(=S)NC(C)(C)[C@H]2CC=C(C)CC2)cc1", "GI50": "43.8 µM"}
{"compound": "COc1cc(/C=N/NC(=S)NC(C)(C)[C@H]2CC=C(C)CC2)ccc1O", "GI50": "23.9 µM"}
{"compound": "C=C(C)[C@H]1CC=C(C)CC1 [D-LIMONENE]", "GI50": "> 100 µM"}
{"compound": "CC1=CC[C@H](C(C)(C)NC(=S)N/N=C/c2ccc(F)cc2)CC1", "GI50": "> 100 µM"}
{"compound": "CC(=O)O[C@H]1C(=O)[C@@]2(C)[C@H]([C@H](OC(=O)c3ccccc3)[C@]3(O)C[C@H](OC(=O)[C@H](O)[C@@H](NC(=O)c4ccccc4)c4ccccc4)C(C)=C1C3(C)C)[C@]1(OC(C)=O)CO[C@@H]1C[C@@H]2O [PACLITAXEL]", "GI50": "0.04 µM"}
{"compound": "CC1=CC[C@H](C(C)(C)NC(=S)N/N=C/c2ccc(Cl)cc2)CC1", "GI50": "65.2 µM"}

====

GI50 values by entry
# Tested on: HT-29
# test details: Growth inhibition of human HT-29 cells after 48 hrs by sulforhodamine B assay
# Format: functional
# condition summary: HT-29, 48 h

{"smiles record": "CC1=CC[C@H](C(C)(C)NC(=S)N/N=C(\\C)c2ccc([N+](=O)[O-])cc2)CC1", "comparison operator": "=", "GI50 (µM)": 29.9}
{"smiles record": "COc1cc(/C=N/NC(=S)NC(C)(C)[C@H]2CC=C(C)CC2)ccc1O", "comparison operator": "<", "GI50 (µM)": 0.04}
{"smiles record": "CC1=CC[C@H](C(C)(C)NC(=S)N/N=C/c2ccc(Cl)cc2)CC1", "comparison operator": "=", "GI50 (µM)": 13.6}
{"smiles record": "CC1=CC[C@H](C(C)(C)NC(=S)N/N=C/c2cccc(Cl)c2)CC1", "comparison operator": "=", "GI50 (µM)": 7.9}
{"smiles record": "CC1=CC[C@H](C(C)(C)NC(=S)N/N=C/c2ccco2)CC1", "comparison operator": "=", "GI50 (µM)": 7.2}
{"smiles record": "COc1ccc(/C=N/NC(=S)NC(C)(C)[C@H]2CC=C(C)CC2)cc1", "comparison operator": "=", "GI50 (µM)": 8.4}
{"smiles record": "CC1=CC[C@H](C(C)(C)NC(=S)N/N=C/c2ccccc2[N+](=O)[O-])CC1", "comparison operator": "=", "GI50 (µM)": 7.9}
{"smiles record": "CC1=CC[C@H](C(C)(C)NC(=S)N/N=C/c2ccc[nH]2)CC1", "comparison operator": "=", "GI50 (µM)": 27.5}
{"smiles record": "CC1=CC[C@H](C(C)(C)N=C=S)CC1", "comparison operator": ">", "GI50 (µM)": 100}
{"smiles record": "CC1=CC[C@H](C(C)(C)NC(=S)N/N=C/c2ccc(N(C)C)cc2)CC1", "comparison operator": "=", "GI50 (µM)": 46.5}

====

# test details: Growth inhibition of African green monkey Vero cells after 48 hrs by sulforhodamine B assay
# Format: cell-based
# condition summary: chlorocebus sabaeus, Vero cells

{"smiles record": "C=C(C)[C@H]1CC=C(C)CC1", "GI50 at 48 h": "> 100 µM"}
{"smiles record": "CC1=CC[C@H](C(C)(C)N=C=S)CC1", "GI50 at 48 h": "> 100 µM"}
{"smiles record": "CC1=CC[C@H](C(C)(C)NC(=S)N/N=C/c2ccc(O)cc2)CC1", "GI50 at 48 h": "> 100 µM"}

====

GI50 at 48 h values by entry
# test details: Growth inhibition of African green monkey Vero cells after 48 hrs by sulforhodamine B assay
# Type: cell-based
# condition summary: chlorocebus sabaeus, Vero cells

{"smiles record": "COc1ccc(/C(C)=N/NC(=S)NC(C)(C)[C@H]2CC=C(C)CC2)cc1", "comparison operator": ">", "GI50 at 48 h (µM)": 100}
{"smiles record": "CC1=CC[C@H](C(C)(C)NC(=S)N/N=C/c2ccco2)CC1", "comparison operator": "=", "GI50 at 48 h (µM)": 5.1}
{"smiles record": "CC1=CC[C@H](C(C)(C)NC(=S)N/N=C/c2ccc(F)cc2)CC1", "comparison operator": ">", "GI50 at 48 h (µM)": 100}
{"smiles record": "CC1=CC[C@H](C(C)(C)NC(=S)N/N=C/c2ccc(Cl)cc2)CC1", "comparison operator": "=", "GI50 at 48 h (µM)": 70}
{"smiles record": "CC1=CC[C@H](C(C)(C)NC(=S)N/N=C/c2cccs2)CC1", "comparison operator": "=", "GI50 at 48 h (µM)": 10.1}

====

# Tested on: MCF7
# test details: Growth inhibition of human MCF7 cells after 48 hrs by sulforhodamine B assay
# Type: functional
# condition summary: MCF7, 48 h

{"smiles record": "CC1=CC[C@H](C(C)(C)NC(=S)N/N=C/c2ccc(N(C)C)cc2)CC1", "tested on": "MCF7", "comparison operator": ">", "TGI (µM)": 100}
{"smiles record": "CC1=CC[C@H](C(C)(C)NC(=S)N/N=C/c2cccc([N+](=O)[O-])c2)CC1", "tested on": "MCF7", "comparison operator": ">", "TGI (µM)": 100}
{"smiles record": "CC1=CC[C@H](C(C)(C)NC(=S)N/N=C/c2ccc(O)cc2)CC1", "tested on": "MCF7", "comparison operator": ">", "TGI (µM)": 100}
{"smiles record": "COc1ccc(/C(C)=N/NC(=S)NC(C)(C)[C@H]2CC=C(C)CC2)cc1", "tested on": "MCF7", "comparison operator": ">", "TGI (µM)": 100}
{"smiles record": "CC1=CC[C@H](C(C)(C)NC(=S)N/N=C(\\C)c2ccc([N+](=O)[O-])cc2)CC1", "tested on": "MCF7", "comparison operator": "=", "TGI (µM)": 77.5}
{"smiles record": "CC1=CC[C@H](C(C)(C)NC(=S)N/N=C/c2cccc(Cl)c2)CC1", "tested on": "MCF7", "comparison operator": "=", "TGI (µM)": 61}
{"smiles record": "CC1=CC[C@H](C(C)(C)NC(=S)N/N=C/c2ccccc2)CC1", "tested on": "MCF7", "comparison operator": "=", "TGI (µM)": 84.4}
{"smiles record": "CC1=CC[C@H](C(C)(C)NC(=S)N/N=C/c2ccc(Cl)cc2)CC1", "tested on": "MCF7", "comparison operator": ">", "TGI (µM)": 100}
{"smiles record": "CC1=CC[C@H](C(C)(C)NC(=S)N/N=C/c2ccc(F)cc2)CC1", "tested on": "MCF7", "comparison operator": ">", "TGI (µM)": 100}
{"smiles record": "CC1=CC[C@H](C(C)(C)NC(=S)N/N=C/c2ccccc2Cl)CC1", "tested on": "MCF7", "comparison operator": "=", "TGI (µM)": 98.3}
{"smiles record": "CC1=CC[C@H](C(C)(C)N=C=S)CC1", "tested on": "MCF7", "comparison operator": ">", "TGI (µM)": 100}
{"smiles record": "CC1=CC[C@H](C(C)(C)NC(=S)N/N=C(\\C)c2ccccc2)CC1", "tested on": "MCF7", "comparison operator": ">", "TGI (µM)": 100}
{"smiles record": "COc1ccc(/C=N/NC(=S)NC(C)(C)[C@H]2CC=C(C)CC2)cc1", "tested on": "MCF7", "comparison operator": "=", "TGI (µM)": 37.7}
{"smiles record": "CC1=CC[C@H](C(C)(C)NC(=S)N/N=C/c2cccs2)CC1", "tested on": "MCF7", "comparison operator": "=", "TGI (µM)": 11.5}
{"smiles record": "C=C(C)[C@H]1CC=C(C)CC1", "tested on": "MCF7", "comparison operator": ">", "TGI (µM)": 100}
